Biological target: T1, human IL-31-His (human, UniProt Q6EBC2 24-164)
T1 construct: form captured via anti-His tag antibody in the SPR of the scFvs (sections 1.8 and 2.4); also called hIL-31; not shown: His tag
T1 sequence (looked up): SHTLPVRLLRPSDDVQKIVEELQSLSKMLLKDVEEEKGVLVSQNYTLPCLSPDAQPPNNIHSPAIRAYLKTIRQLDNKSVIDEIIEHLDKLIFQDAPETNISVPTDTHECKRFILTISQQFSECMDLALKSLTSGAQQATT
Assay: SPR (Biacore T200), human IL-31-His captured via anti-His antibody, scFv as analyte
Each entry below carries its reported kon.

- binder: "PRO1903 (scFv, scFv (VL-linker-VH); variant of PRO1643 with VL D32E (AHo numbering); also called 50-09-D07-sc07; 50-09-D07-5c07) scFv: AFQLTQSPSSLSASVGDRVTITCQASQSIESWLAWYQQKPGKPPKLLIYQASKLASGVPSRFSGSGSGTDYTLTISSLQPEDFATYYCQTYYGGGHIGWGFGTGTKVTVLGGGGGSGGGGSGGGGSGGGGSQSQLVESGGGLVQPGGSLRLSCAASGFSFSANYWICWVRQAPGKGLEWIVCIYIGSRADTYYAPWAKGRFTISKDNSKNTVYLQMNSLRAEDTAVYFCARFSSGIYDLDRFFLWGQGTLVTVSS"
  unit_spec: "M⁻¹ s⁻¹"
  kon: 524000
- binder: "PRO1902 (scFv, scFv (VL-linker-VH); variant of PRO1643 with VH Y59S (AHo numbering); also called 50-09-D07-sc06; 50-09-D07-5c06) scFv: AFQLTQSPSSLSASVGDRVTITCQASQSIDSWLAWYQQKPGKPPKLLIYQASKLASGVPSRFSGSGSGTDYTLTISSLQPEDFATYYCQTYYGGGHIGWGFGTGTKVTVLGGGGGSGGGGSGGGGSGGGGSQSQLVESGGGLVQPGGSLRLSCAASGFSFSANYWICWVRQAPGKGLEWIVCISIGSRADTYYAPWAKGRFTISKDNSKNTVYLQMNSLRAEDTAVYFCARFSSGIYDLDRFFLWGQGTLVTVSS"
  unit_spec: "M⁻¹ s⁻¹"
  kon: 852000
- binder: "PRO1900 (scFv, scFv (VL-linker-VH); variant of PRO1643 with VH L12R, V103T, L144Q (AHo numbering); also called 50-09-D07-sc04; 50-09-D07-5c04) scFv: AFQLTQSPSSLSASVGDRVTITCQASQSIDSWLAWYQQKPGKPPKLLIYQASKLASGVPSRFSGSGSGTDYTLTISSLQPEDFATYYCQTYYGGGHIGWGFGTGTKVTVLGGGGGSGGGGSGGGGSGGGGSQSQLVESGGGRVQPGGSLRLSCAASGFSFSANYWICWVRQAPGKGLEWIVCIYIGSRADTYYAPWAKGRFTISKDNSKNTVYLQMNSLRAEDTATYFCARFSSGIYDLDRFFLWGQGTQVTVSS"
  unit_spec: "M⁻¹ s⁻¹"
  kon: 661000
- binder: "PRO1643 (scFv, scFv (VL-linker-VH), full graft of rabbit clone 50-09-D07; also called 50-09-D07-sc03; 50-09-D07-5c03) scFv: AFQLTQSPSSLSASVGDRVTITCQASQSIDSWLAWYQQKPGKPPKLLIYQASKLASGVPSRFSGSGSGTDYTLTISSLQPEDFATYYCQTYYGGGHIGWGFGTGTKVTVLGGGGGSGGGGSGGGGSGGGGSQSQLVESGGGLVQPGGSLRLSCAASGFSFSANYWICWVRQAPGKGLEWIVCIYIGSRADTYYAPWAKGRFTISKDNSKNTVYLQMNSLRAEDTAVYFCARFSSGIYDLDRFFLWGQGTLVTVSS"
  unit_spec: "M⁻¹ s⁻¹"
  kon: 579000
